Could you please report measured IC50 for the items listed next?
system: DMS-114 (FGFR1 overexpression) cells; experiment: cell proliferation assay (CellTiterGlo), DMS-114 cells; format: cell-based; settings: Homo sapiens, DMS-114, 72 h

input: Fill blank: measured IC50 of the compound Cc1nc2ccc(Oc3ccc4ncc(-c5cnn(CC6CCC(O)CC6)c5)nc4c3Cl)cc2[nH]1 (stereo not drawn) [Compound 339] is ____.
output: 100 to 400 nM

input: Bench note: what IC50 did Cc1nc2ccc(Oc3ccc4ncc(-c5cnn(CC6CCS(=O)(=O)CC6)c5)nc4c3S(C)(=O)=O)cc2[nH]1 [Compound 116] show?
output: ≥ 400 nM

input: Requested field: IC50. Item: Cc1nc2ccc(Oc3ccc4ncc(-c5cnn(C6CC7(CC(O)C7)C6)c5)nc4c3Cl)cc2[nH]1 (stereo not drawn) [Compound 161]
output: ≥ 400 nM

input: Data request, read-out IC50, for Cc1nc2ccc(Oc3ccc4ncc(-c5cnn([C@@H](C)CO)c5)nc4c3Cl)cc2[nH]1 [Compound 125]
output: ≥ 400 nM

input: So what does the record say about IC50 for Cc1nc2ccc(Oc3ccc4ncc(-c5cnn(CC6CC(F)(F)C6)c5)nc4c3C3=CCCOC3)cc2[nH]1 [Compound 91] ?
output: ≥ 400 nM

input: Sample Cc1nc2ccc(Oc3ccc4ncc(-c5cnn(CC(=O)N6CCS(=O)(=O)CC6)c5)nc4c3Cl)cc2[nH]1 [Compound 270] — what was its IC50?
output: ≥ 400 nM

input: Query (compound): Cc1nc2ccc(Oc3ccc4ncc(-c5cnn(C6CCN(C(=O)N7CC(O)C7)CC6)c5)nc4c3Cl)cc2[nH]1 [Compound 189] ; field requested: IC50
output: ≥ 400 nM

input: Recorded IC50 of Cc1nc2ccc(Oc3ccc4ncc(-c5cnn(C6CCN(C(=O)N(C)C)CC6)c5)nc4c3Cl)cc2[nH]1 [Compound 261] , please.
output: 20 to 100 nM

input: Suppose we examine the compound Cc1nc2ccc(Oc3ccc4ncc(-c5cnn(C(C)(C)C(=O)N6CCOCC6)c5)nc4c3Cl)cc2[nH]1 [Compound 209] ; what IC50 value has been reported?
output: ≥ 400 nM

input: Quick one: IC50 for Clc1c(Oc2ccn3cncc3c2)ccc2ncc(-c3cnn(CC4CCNCC4)c3)nc12 [Compound 341] ?
output: ≥ 400 nM

input: Returns the measured IC50 for the input compound. Input: Cc1nc2ccc(Oc3ccc4ncc(-c5cnn(C6CC7COCC(C6)N7)c5)nc4c3Cl)cc2[nH]1 (stereo not drawn) [Compound 187]
output: ≥ 400 nM

input: Reported IC50, compound Cc1nc2ccc(Oc3ccc4ncc(-c5cnn(C6CC7(C6)CN(C6COC6)C7)c5)nc4c3Cl)cc2[nH]1 [Compound 218] : ____
output: 100 to 400 nM

input: Requested field: IC50. Item: Cc1nc2ccc(Oc3ccc4ncc(-c5cnn(CC6(O)CCC6)c5)nc4c3Cl)c(F)c2[nH]1 [Compound 140]
output: ≥ 400 nM

input: Given Cc1nc2cc(Oc3ccc4ncc(-c5cnn(CC6CC(F)(F)C6)c5)nc4c3Cl)cc(F)c2[nH]1 [Compound 266] , state its recorded IC50.
output: ≥ 400 nM

input: What value of IC50 has been reported for the following compound? Cc1nc2ccc(Oc3ccc4ncc(-c5cnn(CC(=O)N6CCC6)c5)nc4c3Cl)cc2[nH]1 [Compound 319]
output: ≥ 400 nM

====

tested on: DMS-114 (FGFR1 overexpression) cells; test: cell proliferation assay (CellTiterGlo), DMS-114 cells; assay type: cell-based; conditions: Homo sapiens, DMS-114, 72 h
Hi there, I'd appreciate the recorded IC50 for every entry that follows.

input: DMS-114 (FGFR1 overexpression) cells / IC50 / Cc1nc2ccc(Oc3ccc4ncc(-c5cnn([C@H]6C[C@@H](N7C[C@@H]8C[C@H]7CO8)C6)c5)nc4c3Cl)cc2[nH]1 : value?
output: ≥ 400 nM

input: Checklist item: IC50 tested on DMS-114 (FGFR1 overexpression) cells, entry CNC(=O)CN1CC(Cn2cc(-c3cnc4ccc(Oc5ccc6nc(C)[nH]c6c5)c(Cl)c4n3)cn2)C1 , value?
output: ≥ 400 nM

input: Request body: readout IC50, system DMS-114 (FGFR1 overexpression) cells, query CN=S(C)(=O)N1CCC(n2cc(-c3cnc4ccc(Oc5ccc6nc(C)[nH]c6c5)c(Cl)c4n3)cn2)CC1 (stereo not shown) . Return the value.
output: 100 to 400 nM

input: Find IC50 (DMS-114 (FGFR1 overexpression) cells) for the entry Cc1nc2ccc(Oc3ccc4ncc(-c5cnn(CC6CC(C)(O)C6)c5)nc4c3Cl)cc2[nH]1 (stereo not shown)
output: 100 to 400 nM

input: Request body: readout IC50, system DMS-114 (FGFR1 overexpression) cells, query Cc1nc2ccc(Oc3ccc4ncc(-c5cnn(CC6CCNCC6)c5)nc4c3C)cc2[nH]1 . Return the value.
output: ≥ 400 nM

input: Observed IC50 on DMS-114 (FGFR1 overexpression) cells for Cc1nc2ccc(Oc3ccc4ncc(-c5cnn(C6CC7CC6CN7C6COC6)c5)nc4c3Cl)cc2[nH]1 (stereo not shown) , please.
output: ≥ 400 nM

input: Hello, I am looking for reported IC50 with DMS-114 (FGFR1 overexpression) cells for Cc1nc2ccc(Oc3ccc4ncc(-c5cnn(CC(=O)N6CC[C@H](F)C6)c5)nc4c3Cl)cc2[nH]1 . Could you help?
output: ≥ 400 nM

====

Test system: RT-112 (FGFR3-Tacc3 fusion) cells
Experiment: cell proliferation assay (CellTiterGlo), RT-112 cells
Type: cell-based
Conditions: RT112 cells, 72 hours
Protocol: In some embodiments, the biological assay assess the ability of the compounds to inhibit cell proliferation. In some embodiments, cells (e.g., SNU-16 (FGFR2-amplification) cells) may be suspended and dispensed in plates. […] In some embodiments, to determine the IC50 values, the vehicle-treated cells were normalized as viable cells and the growth was analyzed using a software (e.g., the CDD Vault software (Collaborative Drug Discovery, Burlingame, CA)).
property.name: IC50

input: State the recorded IC50 for this entry: Cc1nc2ccc(Oc3ccc4ncc(-c5cnn([C@H]6CC7(C[C@@H](O)C7)C6)c5)nc4c3Cl)cc2[nH]1 (some centres unmarked) [Compound 124]
output: 20 to 100 nM

input: Would you kindly share the measured IC50 for Cc1nc2ccc(Oc3ccc4ncc(-c5cnn([C@H]6CC7(C[C@@H](O)C7)C6)c5)nc4c3Cl)c(F)c2[nH]1 (some centres unmarked) [Compound 128] ?
output: < 20 nM

====

tested on: DMS-114 (FGFR1 overexpression) cells; test: cell proliferation assay (CellTiterGlo), DMS-114 cells; type: cell-based; conditions: Homo sapiens, DMS-114, 72 h
property.name: IC50

input: Which IC50 value is on record for Cc1nc2ccc(Oc3ccc4ncc(-c5cnn([C@H]6C[C@H](N7C[C@@H]8C[C@H]7CO8)C6)c5)nc4c3Cl)cc2[nH]1 [Compound 203] ?
output: ≥ 0.4 µM

input: So what does the record say about IC50 for Cc1nc2ccc(Oc3ccc4ncc(-c5cnn(C6CN(C7CCOCC7)C6)c5)nc4c3Cl)cc2[nH]1 [Compound 238] ?
output: 0.1 to 0.4 µM

input: # input compound: CO[C@H]1CC[C@H](Cn2cc(-c3cnc4ccc(Oc5ccc6nc(C)[nH]c6c5)c(Cl)c4n3)cn2)CC1 [Compound 335] ; wanted: its IC50
output: ≥ 0.4 µM

input: May I ask what IC50 has been recorded for COC(=O)C(C)(C)n1cc(-c2cnc3ccc(Oc4ccc5nc(C)[nH]c5c4F)c(Cl)c3n2)cn1 [Compound 112] ?
output: 0.1 to 0.4 µM

input: Consider the compound shown here: Cc1nc2ccc(Oc3ccc4ncc(-c5cnn(C6CC(=O)C6)c5)nc4c3Cl)c(F)c2[nH]1 [Compound 156] What is its recorded IC50?
output: 0.02 to 0.1 µM

input: Requested read-out: IC50. Entry: Cc1nc2ccc(Oc3ccc4ncc(-c5cnn(C6CCN(C)C7(CC7)C6)c5)nc4c3Cl)cc2[nH]1 (centres unmarked) [Compound 163]
output: 0.1 to 0.4 µM

input: Which IC50 value belongs to Cc1nc2ccc(Oc3ccc4ncc(-c5cnn(CCC6CCN(CC(F)(F)F)CC6)c5)nc4c3Cl)cc2[nH]1 [Compound 296] ?
output: ≥ 0.4 µM

input: Item under review: Cc1nc2ccc(Oc3ccc4ncc(-c5cnn(C6CCN(C)CC6)c5)nc4c3Cl)cc2[nH]1 [Compound 370] . Reported IC50?
output: 0.1 to 0.4 µM

input: For the compound Cc1nc2ccc(Oc3ccc4ncc(-c5cnn(C6CN(C(=O)N(C)C)C6)c5)nc4c3Cl)cc2[nH]1 [Compound 184] , what IC50 is on record?
output: ≥ 0.4 µM

input: Requested field: IC50. Item: Cc1nc2ccc(Oc3ccc4ncc(-c5cnn(CC6(F)CC6)c5)nc4c3Cl)cc2[nH]1 [Compound 253]
output: ≥ 0.4 µM

input: Consider the compound shown here: Cc1nc2ccc(Oc3ccc4ncc(-c5cnn(CC6CCC(=O)CC6)c5)nc4c3Cl)cc2[nH]1 [Compound 327] What is its recorded IC50?
output: ≥ 0.4 µM

input: Look up IC50 for this compound: Cc1nc2ccc(Oc3ccc4ncc(-c5cnn(CC6COCCN6)c5)nc4c3Cl)cc2[nH]1 (centres unmarked) [Compound 246]
output: ≥ 0.4 µM

input: Name the reported IC50 value associated with the compound Cc1nc2ccc(Oc3ccc4ncc(-c5cnn(C6CC7CC6CN7)c5)nc4c3Cl)cc2[nH]1 (centres unmarked) [Compound 353]
output: ≥ 0.4 µM

input: // IC50 lookup, key: C=CS(=O)(=O)N1CCC(Cn2cc(-c3cnc4ccc(Oc5ccc6nc(C)[nH]c6c5)c(Cl)c4n3)cn2)CC1 [Compound 384]
output: ≥ 0.4 µM

input: Look up IC50: Cc1nc2ccc(Oc3ccc4ncc(-c5cnn(CC(=O)N6CCC(F)C6)c5)nc4c3Cl)cc2[nH]1 (centres unmarked) [Compound 290]
output: ≥ 0.4 µM

input: Value lookup for IC50; key = Cc1nc2ccc(Oc3ccc4ncc(-c5cnn(CC(=O)N6CCCC6)c5)nc4c3Cl)cc2[nH]1 [Compound 383]
output: ≥ 0.4 µM

input: Quick one: IC50 for Cc1nc2ccc(Oc3ccc4ncc(-c5cnn(C6CN(C(=O)N7CC(O)C7)C6)c5)nc4c3Cl)cc2[nH]1 [Compound 183] ?
output: ≥ 0.4 µM

input: Reported IC50 for Cc1nc2ccc(Oc3ccc4ncc(-c5cnn(C(C)(C)C6CC(=O)C6)c5)nc4c3Cl)cc2[nH]1 [Compound 150] : what is it?
output: ≥ 0.4 µM

input: Look up IC50 for this compound: Cc1nc2ccc(Oc3ccc4ncc(-c5cnn(CC6CC(F)(F)C6)c5)nc4c3N)cc2[nH]1 [Compound 159]
output: ≥ 0.4 µM

input: // returns reported IC50 for input Cc1nc2ccc(Oc3ccc4ncc(-c5cnn(CC(C)(C)O)c5)nc4c3Cl)cc2[nH]1 [Compound 280]
output: ≥ 0.4 µM

input: Dear colleague, I am looking for the recorded IC50 of the following compound: Cc1nc2ccc(Oc3ccc4ncc(-c5cnn(C(C)(C)C6CC(F)(F)C6)c5)nc4c3Cl)cc2[nH]1 [Compound 147]
output: ≥ 0.4 µM

input: Need IC50 of Cc1nc2ccc(Oc3ccc4ncc(-c5cnn([C@H]6C[C@@H](O)C6)c5)nc4c3Cl)c(F)c2[nH]1 [Compound 148] , thanks.
output: 0.02 to 0.1 µM

input: What value of IC50 has been reported for the following compound? Cc1nc2ccc(Oc3ccc4ncc(-c5cnn(C[C@H](C)O)c5)nc4c3Cl)cc2[nH]1 [Compound 119]
output: 0.1 to 0.4 µM

input: # query: IC50 of entry Cc1nc2ccc(Oc3ccc4ncc(-c5cnn(CC6CC(F)(F)C6)c5)nc4c3Br)cc2[nH]1 [Compound 243]
output: ≥ 0.4 µM

input: Request the reported IC50 associated with Cc1nc2ccc(Oc3ccc4ncc(-c5cnn(C6CCS(=N)(=O)CC6)c5)nc4c3Cl)cc2[nH]1 (centres unmarked) [Compound 85]
output: ≥ 0.4 µM

input: Entry Cc1nc2ccc(Oc3ccc4ncc(-c5cnn(CC(=O)O)c5)nc4c3Cl)cc2[nH]1 [Compound 269] : reported IC50 = ?
output: ≥ 0.4 µM

input: Quick check: IC50 of Cc1nc2ccc(Oc3ccc4ncc(-c5cnn(C6(C)CCC(F)(F)CC6)c5)nc4c3Cl)cc2[nH]1 [Compound 171] ?
output: ≥ 0.4 µM

input: So what does the record say about IC50 for Cc1nc2ccc(Oc3ccc4ncc(-c5cnn(CC6CCC(S(C)(=O)=O)CC6)c5)nc4c3Cl)cc2[nH]1 (centres unmarked) [Compound 366] ?
output: ≥ 0.4 µM

input: Which IC50 is reported for this compound? Cc1nc2ccc(Oc3ccc4ncc(-c5cnn(CC6CCN(C(N)=O)CC6)c5)nc4c3Cl)cc2[nH]1 [Compound 354]
output: 0.1 to 0.4 µM
